// data source = ChEMBL document CHEMBL1201862

Tested on: DU-145
Assay: NCI tumour cell line growth inhibition, 48 h
Calls of active or inactive are those of the source. Cut-off read from the data, not from the text of the source: active = GI50 up to about 1.1 µM and inactive = higher.
Your answer must be one of the following: Yes (active), No (inactive)

- COC(=O)c1ccc(C)cc1C1CN=NC12Cc1cc(C)c(C)cc1C2=O (configuration not stated): No
- COc1cc2c(cc1OC)C1C3CCCCC3CCN1CC2 (configuration not stated): No
- CCOC(=O)N1c2c(c3ccccc3n2C(=O)OCC)C(=O)C(OC)N1C(=O)OCC (configuration not stated): No
- Oc1ccc(O)c(Sc2nnc(CCCCCCCCc3nnc(Sc4cc(O)ccc4O)o3)o2)c1: No
- CCC/C(Cl)=N\OC(=O)Nc1ccc(OC(F)(F)F)cc1: No
- C=C(C)C(=O)OC1CC2(C)OC2CC(OC(C)=O)/C(C)=C/C2OC(=O)C(=C)C21 (configuration not stated): No
- COc1ccc(CC2C3=C(CCCC3)CCN2C)cc1 (configuration not stated): No
- O=c1cccc(C2CC(CO)C3CCCCN3C2)[nH]1 (configuration not stated): No

Exam item: Please let me know the test result on file for C[C@H](CCC(=O)O)[C@H]1CC[C@H]2[C@@H]3[C@@H](O)C[C@@H]4C[C@H](O)CC[C@]4(C)[C@H]3CC[C@]12C [URSODIOL] .
Marked response: No

Exam item: I would be grateful if you could indicate the recorded call for Cc1nc(N)c(N2CCN(S(=O)(=O)N(Cc3ccccc3)Cc3ccccc3)CC2)c(O)n1 .
Marked response: No

Exam item: Just curious, what result did CCOC(=O)/C=C/[C@@H](CC)O[Si](C(C)C)(C(C)C)C(C)C get here?
Marked response: No

Exam item: Hi, sorry to bother you, what did the test record for O=Cc1cc([N+](=O)[O-])no1 ?
Marked response: No

Exam item: Which outcome did this test record for the compound CCOC(=O)c1cnc2oc3ccc(O)cc3c2c1C ?
Marked response: No

Exam item: Can you look up the reported call for CCCCCCCCCCCCCCCCCCOCC(O)COP(=O)(O)OCC1OC(n2cc(F)c(=O)[nH]c2=O)CC1O (configuration not stated) for me?
Marked response: No

Exam item: Please indicate how the test categorized C=C(CCOC)CCC1CCCCC(=C)[C@H]1OC(C)=O (some centres not stated) .
Marked response: No

Exam item: What was the test verdict on C=C(C)[C@@]12C[C@H](OC(=O)[C@H](O)[C@@H](NC(=O)c3ccccc3)c3ccccc3)C(C)=C1[C@@H](OC(C)=O)C(=O)[C@@]1(C)C([C@@H]2OC(=O)c2cc(F)cc(F)c2)C2(OC(C)=O)CO[C@@H]2C[C@@H]1O (some centres not stated) ?
Marked response: Yes

Exam item: Hey, what did the test say about O=C(c1ccccc1)c1c2ccccn2c2cccc[n+]12 ?
Marked response: No

----------
Test system: NCI-H460
Test: NCI tumour cell line growth inhibition, 48 h
Active and inactive are the calls of the source. Rule as the data show it: active = GI50 up to about 1.1 µM and inactive = higher.
Bench note: report the call from YES = active, NO = inactive

Field: example entries. Status: answers known.
• CCc1ccccc1NC(=O)C1=C(C)NC(C)=C(C(=O)Nc2ccccc2CC)C1c1ccccc1Cl = NO
• CCOc1ccc(OCC)c([P+](c2ccccc2)(c2ccccc2)c2ccccc2)c1 = YES
• Cc1cccc2c1nc1n2C(=O)c2ccccc2-1 = NO

Exam item: Hi, sorry to bother you, what did the test record for C=CCn1c(-c2ccc([N+](=O)[O-])cc2)cs/c1=N\C(P(=O)(O)O)P(=O)(O)O ?
Marked response: NO

Exam item: Check the results log: what was the call for COc1cc([C@@H]2c3cc4c(cc3[C@@H](NCc3cccc(F)c3)C3COC(=O)[C@@H]32)OCO4)cc(OC)c1O (stereo not given in full) ?
Marked response: YES

Exam item: Can you look up the reported call for NC(=O)NC(=O)c1cccc(NC(=O)CCl)c1 for me?
Marked response: NO

Exam item: What was the test verdict on CC1OC(OC2C[C@](O)(C(=O)CBr)Cc3c(O)c4c(c(O)c32)C(=O)c2ccccc2C4=O)C(F)C(O)C1O (stereo not given in full) ?
Marked response: YES

----------
Tested on: HL-60
Test: NCI tumour cell line growth inhibition, 48 h
Active and inactive are the calls of the source. Cut-off read from the data, not from the text of the source: active = GI50 up to about 1.1 µM and inactive = higher.
Hello, when you answer, please use one of the following outcomes: Yes for active, No for inactive

Exam item: Could you check what this test reported for O=C(c1ccccc1)c1nc2ccc(Cl)cc2cc1C(Br)Br ?
Marked response: Yes

Exam item: For this molecule, state the assay outcome: Fc1cccc2nc(-c3ccccc3)cc(OCc3ccccc3)c12
Marked response: No

Exam item: What is the recorded call for this molecule in the test? O=C1/C(=C/c2ccccc2)CCc2ccc(Cl)nc21
Marked response: Yes

Exam item: Each molecule tested received a call. Report the one for CC(=O)Oc1cc(OC(C)=O)c2cc3c(cc2c1OC(C)=O)C(=O)C1(CCCC1)C3=O .
Marked response: No

Exam item: How was O=c1cccc(C2CC(CO)C3CCCCN3C2)[nH]1 (configuration not stated) classified in this test?
Marked response: No

Exam item: Answer briefly: the call reported for COc1ccc(NC(=O)C/C(C)=N\N=C(N)N)c([N+](=O)[O-])c1 in this assay.
Marked response: No

Exam item: So what was the verdict on COc1ccc([C@@]2(O)c3c(ccc(O)c3OC)[C@H]2OC)c(OC)c1 in this test?
Marked response: No

----------
Test system: A549
Experiment: NCI tumour cell line growth inhibition, 48 h
Activity calls are given as the source filed them. No stated cut-off is given here; in the data, active = GI50 up to about 1.1 µM and inactive = higher.
Entries annotated with measured GI50

Before answering, review these 6 worked examples.
- COC(=O)C(Cc1c[nH]c2ccccc12)NC(=O)C(Cc1c[nH]cn1)NC(=O)C1CCC(=O)N1C(=O)OCc1ccccc1 (stereo not given): > 100 µM (inactive)
- Cc1cccc2c1nc1n2C(=O)c2ccccc2-1: > 100 µM (inactive)
- COc1ccc(C(OCC2OC(n3ccc(Oc4c(F)c(F)c(F)c(F)c4F)nc3=O)CC2OP(OCCC#N)N(C(C)C)C(C)C)(c2ccccc2)c2ccc(OC)cc2)cc1 (stereo not given): > 100 µM (inactive)
- O=c1c(-c2nc3ccccc3c3ccccc3c2=O)nc2ccccc2c2ccccc12: 48 µM (inactive)
- O=C1C(=O)N(c2ccc(Cl)c(Cl)c2)C(=O)C(=O)C1c1nc2ccccc2s1: > 100 µM (inactive)
- C=C1CCC2C(C)(CO)C(O)CCC2(C)C1CC(O)/C(=C/CO)C(=O)O (stereo not given): > 100 µM (inactive)

Exam item: If you can, please state the reported GI50 value of O=c1oc2ccc(Cl)cc2cc1C1=CSC2=NCCN12 .
Marked response: 40.7 µM (inactive)

Exam item: Recorded GI50 of O=C1c2cc(-c3ccccc3)cnc2S(=O)(=O)N1c1ccc(Br)cc1 , please.
Marked response: 18.7 µM (inactive)

Exam item: Can you look up the measured GI50 of O=c1[nH]c(=O)n(COCc2ccccc2)cc1Nc1ccc(Br)cc1 for me?
Marked response: > 100 µM (inactive)

Exam item: Tell me the measured GI50 of O=C(C=P(c1ccccc1)(c1ccccc1)c1ccccc1)c1cccc(-c2cccc([N+](=O)[O-])c2)c1 , please.
Marked response: 3.62 µM (inactive)

Exam item: Which GI50 is reported for this compound? CSc1nc(Cl)c2c(n1)Sc1nc3ccccc3n1C2O (stereo not given)
Marked response: 7.38 µM (inactive)

Exam item: Which GI50 value belongs to NNC(=O)CSc1nc2ccccc2c(=O)n1N ?
Marked response: > 100 µM (inactive)

Exam item: Report GI50 for N#Cc1c([N+](=O)[O-])cc(C(F)(F)F)cc1[N+](=O)[O-] please.
Marked response: 19.5 µM (inactive)

Exam item: Consider the compound N#Cc1nc2ccccc2nc1N1CCN(c2ccc([N+](=O)[O-])cc2)CC1 and give its measured GI50.
Marked response: > 100 µM (inactive)

Exam item: What measured GI50 goes with CC(=O)Oc1ccccc1 ?
Marked response: > 100 µM (inactive)

----------
Test system: U-251
Test: NCI tumour cell line growth inhibition, 48 h
Active and inactive are the calls of the source. No stated cut-off is given here; in the data, active = GI50 up to about 1.1 µM and inactive = higher.
Reported GI50 values for the following molecules.

Below, each entry is followed by its recorded GI50 result.
* Cc1nnc2n1N=C(c1cc(F)c(Cl)cc1Cl)/C(=C/c1ccc(Cl)cc1)S2 | 17 µM (inactive)
* CCOC(=O)/C=C/[C@@H](CC)O[Si](C(C)C)(C(C)C)C(C)C | > 100 µM (inactive)
* Cc1ccc2nc(CN(CCO)CCO)cc(=O)n2c1 | > 100 µM (inactive)
* CC1OC(OP(=O)(OCc2ccccc2)OCc2ccccc2)C(OC(=O)c2ccccc2)C(OC(=O)c2ccccc2)C1I (configuration not stated) | 50.4 µM (inactive)
* Cc1cc(C)nc(NS(=O)(=O)c2ccc(Nc3c4ccccc4nc4c(C(=O)N5CCN(CCO)CC5)ccc(Cl)c34)cc2)n1 | 97.3 µM (inactive)
* C#CCNC(=O)NCCCCC(NC(C)=O)C(=O)NCc1ccccc1 (configuration not stated) | > 100 µM (inactive)

Exam item: Can you look up GI50 on U-251 for CCCc1c(O)nc(Nc2nc3ccccc3[nH]2)[nH]c1=O ?
Marked response: > 100 µM (inactive)
